Recorded inhibition by entry
- TEST_SYSTEM: Gag-Pol polyprotein (Human immunodeficiency virus type 1 group M subtype B (isolate HXB2))
- PROCEDURE_DETAILS: RNase H inhibition, HIV 1 Gag Pol polyprotein, FRET biochemical assay, screening (AID 372)
- MEASUREMENT_CONDITIONS: HIV-1 RT RNase H, FRET RNA/DNA substrate fluorescence; at 10 µM; hits give high values
About 770 (0.77%) of roughly 100,000 compounds were called active. The entries come from a sample that favours actives as a whole.
# output: bare number, implied unit %

Previously resolved entries follow.
O=c1c2ccccc2nc(-c2ccccn2)n1-c1ccc(Cl)cc1 :: 4
O=C1NC(=O)C(=Cc2ccccc2F)C(=O)N1 :: 3
COc1cc(OC)c(OC)cc1C=C(C#N)C#N :: 4

Provide inhibition, tested on Gag-Pol polyprotein (Human immunodeficiency virus type 1 group M subtype B (isolate HXB2)), for CC12CCC3C(CC=C4CC(O)CCC43C)C1C/C(=C\c1ccc(F)cc1)C2=O (configuration not stated) .
11

Provide inhibition, tested on Gag-Pol polyprotein (Human immunodeficiency virus type 1 group M subtype B (isolate HXB2)), for `O=C1NC(=O)N(Cc2ccco2)C(=O)/C1=C\c1ccc(-c2cccc([N+](=O)[O-])c2)o1` .
57

Provide inhibition, tested on Gag-Pol polyprotein (Human immunodeficiency virus type 1 group M subtype B (isolate HXB2)), for CC(=O)OC1CCC2(C)C(=CCC3C4C/C(=C\c5ccc([N+](=O)[O-])cc5)C(=O)C4(C)CCC32)C1 (configuration not stated) .
9

Provide inhibition, tested on Gag-Pol polyprotein (Human immunodeficiency virus type 1 group M subtype B (isolate HXB2)), for `O=c1c2ccccc2nc(-c2ccc(Cl)cc2Cl)n1-c1nccs1` .
6

Provide inhibition, tested on Gag-Pol polyprotein (Human immunodeficiency virus type 1 group M subtype B (isolate HXB2)), for `O=c1c2ccccc2nc(CSc2ncnc3ccccc23)n1-c1ccccc1` .
16

Provide inhibition, tested on Gag-Pol polyprotein (Human immunodeficiency virus type 1 group M subtype B (isolate HXB2)), for `CN1C(=O)NC(=O)/C(=C/c2ccc(-c3cccc([N+](=O)[O-])c3)o2)C1=O` .
14

Provide inhibition, tested on Gag-Pol polyprotein (Human immunodeficiency virus type 1 group M subtype B (isolate HXB2)), for `CN1C(=O)C(=Cc2ccc(-c3cccc([N+](=O)[O-])c3)o2)C(=O)N(C)C1=S` .
21

Provide inhibition, tested on Gag-Pol polyprotein (Human immunodeficiency virus type 1 group M subtype B (isolate HXB2)), for `Cc1ccc(-c2nn(-c3ccccc3)cc2C=C2C(=O)NC(=S)NC2=O)o1` .
21

Provide inhibition, tested on Gag-Pol polyprotein (Human immunodeficiency virus type 1 group M subtype B (isolate HXB2)), for `O=C1NC(=S)N(c2cccc(Cl)c2Cl)C(=O)/C1=C/c1ccc(-c2ccc(C(=O)O)cc2)o1` .
12

Provide inhibition, tested on Gag-Pol polyprotein (Human immunodeficiency virus type 1 group M subtype B (isolate HXB2)), for `COc1ccc(C=C(C#N)C#N)cc1C` .
44

Provide inhibition, tested on Gag-Pol polyprotein (Human immunodeficiency virus type 1 group M subtype B (isolate HXB2)), for `O=C(Nc1ccc(Cl)cc1C(=O)c1ccccc1)c1ccc([N+](=O)[O-])cc1` .
16

Provide inhibition, tested on Gag-Pol polyprotein (Human immunodeficiency virus type 1 group M subtype B (isolate HXB2)), for `COc1ccc(N2C(=O)/C(=C\c3ccoc3)C(=O)NC2=S)cc1` .
44

Provide inhibition, tested on Gag-Pol polyprotein (Human immunodeficiency virus type 1 group M subtype B (isolate HXB2)), for `O=C1NC(=S)NC(=O)C1=Cc1ccc(OCc2cccc(C(=O)O)c2)cc1` .
5

Provide inhibition, tested on Gag-Pol polyprotein (Human immunodeficiency virus type 1 group M subtype B (isolate HXB2)), for CSc1ccc(C2C(C#N)=C(N)Oc3c2c(=O)oc2ccccc32)cc1 (configuration not stated) .
7

Provide inhibition, tested on Gag-Pol polyprotein (Human immunodeficiency virus type 1 group M subtype B (isolate HXB2)), for `Cc1ccc(C)c(N2CCN(Cc3ccccc3Br)CC2)c1` .
6

Provide inhibition, tested on Gag-Pol polyprotein (Human immunodeficiency virus type 1 group M subtype B (isolate HXB2)), for `O=Cc1cn(Cc2c(Cl)cccc2Cl)c2ccccc12` .
34

----------
- TEST_SYSTEM: Gag-Pol polyprotein (Human immunodeficiency virus type 1 group M subtype B (isolate HXB2))
- PROCEDURE_DETAILS: RNase H inhibition, HIV 1 Gag Pol polyprotein, FRET biochemical assay, screening (AID 372)
- MEASUREMENT_CONDITIONS: HIV-1 RT RNase H, FRET RNA/DNA substrate fluorescence; at 10 µM
Hit rate of the full screen: of about 100,000 compounds, about 770 (0.77%) were called active. Cut-off read from the data, not from the text of the source: active = inhibition above about 50%; inactive = the rest. What follows is part of a selection rich in actives, with near analogues and random picks from the rest.
Reply using exactly one outcome from true (1) for active, false (0) for inactive

Solved cases (4 shown):
C=CCN1C(=O)/C(=C\c2ccc(-c3cccc(Cl)c3Cl)o2)C(=O)NC1=S :: true (1)
FC(F)(F)c1ccc(CN2CCN(c3cccc(Cl)c3)CC2)cc1 :: false (0)
O=C1NC(=S)NC(=O)C1=Cc1ccc(-c2ccc(C(=O)O)cc2)o1 :: false (0)
C=CCN1C(=O)NC(=O)/C(=C/c2ccc(O)c(O)c2)C1=O :: true (1)

Could you now look at the following compound, please?
Dear all, I need the recorded test outcome for `C=CCN1C(=O)NC(=O)/C(=C/c2ccc(-c3cc([N+](=O)[O-])ccc3Cl)o2)C1=O` , thank you.
false (0)

----------
- TEST_SYSTEM: Gag-Pol polyprotein (Human immunodeficiency virus type 1 group M subtype B (isolate HXB2)) (UniProt P04585)
- PROCEDURE_DETAILS: RNase H inhibition, HIV 1 Gag Pol polyprotein, FRET biochemical assay, screening (AID 372)
- MEASUREMENT_CONDITIONS: HIV-1 RT RNase H, FRET RNA/DNA substrate fluorescence; at 10 µM; hits give high values
Screen size: about 100,000 compounds; about 770 (0.77%) were called active. The list comes from a sample in which actives are over-represented; it also holds close analogues and randomly drawn compounds.
Values of inhibition greater than or equal to 40% map to fulfilled; values below map to not fulfilled.

CCOC(=O)C1=C(N)OC(C)=C(C(C)=O)C12C(=O)Nc1ccccc12 (stereo unspecified) :: not fulfilled

Hello, I need to know if `C=CCN1C(=O)NC(=O)C(=Cc2cccn2C)C1=O` has measured inhibition not below 40%. Thanks!
not fulfilled

Hello, I need to know if `Cc1ccc(-c2ccc(C=C3C(=O)NC(=S)NC3=O)o2)cc1[N+](=O)[O-]` has measured inhibition not below 40%. Thanks!
fulfilled

Hello, I need to know if `CCN1C(=O)/C(=C/c2cccn2C)C(=O)NC1=S` has measured inhibition not below 40%. Thanks!
fulfilled

Hello, I need to know if CCOC(=O)C1=C(C)OC(N)=C(C(=O)OCCOC)C12C(=O)Nc1ccccc12 (stereo unspecified) has measured inhibition not below 40%. Thanks!
not fulfilled

----------
- TEST_SYSTEM: Gag-Pol polyprotein (Human immunodeficiency virus type 1 group M subtype B (isolate HXB2)) (UniProt P04585)
- PROCEDURE_DETAILS: RNase H inhibition, HIV 1 Gag Pol polyprotein, FRET biochemical assay, screening (AID 372)
- MEASUREMENT_CONDITIONS: HIV-1 RT RNase H, FRET RNA/DNA substrate fluorescence; at 10 µM; hits give high values
Out of some 100,000 compounds screened, about 770 (0.77%) were called active. The list comes from a sample in which actives are over-represented; it also holds close analogues and randomly drawn compounds.
MEASURED_METRIC: inhibition

Fill in reported inhibition for this entry: `O=C(COc1ccc2ccccc2c1)N1CCN(Cc2ccc([N+](=O)[O-])cc2)CC1`
13% (inactive)

Fill in reported inhibition for this entry: `C/C(=C\c1ccc(Cl)cc1Cl)[N+](=O)[O-]`
51% (active)

Fill in reported inhibition for this entry: `COc1cc(/C=C(\C)[N+](=O)[O-])cc(OC)c1OC`
4% (inactive)

Fill in reported inhibition for this entry: `Clc1ccc(N2CCN(CCc3ccccc3)CC2)cc1`
14% (inactive)

Fill in reported inhibition for this entry: `CN1C(=O)/C(=C\c2cn(Cc3ccccc3)c3ccccc23)C(=O)NC1=S`
15% (inactive)

----------
- TEST_SYSTEM: Gag-Pol polyprotein (Human immunodeficiency virus type 1 group M subtype B (isolate HXB2)) (UniProt P04585)
- PROCEDURE_DETAILS: RNase H inhibition, HIV 1 Gag Pol polyprotein, FRET biochemical assay, screening (AID 372)
- MEASUREMENT_CONDITIONS: HIV-1 RT RNase H, FRET RNA/DNA substrate fluorescence; at 10 µM; hits give high values
In all, about 100,000 compounds went through this assay and about 770 (0.77%) were called active. The sample as a whole holds a higher share of actives than the screen did.
MEASURED_METRIC: inhibition (%)
# output: bare number, implied unit %

Cc1ccc(C2c3c(c4ccccc4oc3=O)Oc3c2c(=O)oc2ccccc32)cc1 :: 11

Now look at this one.
Fill in reported inhibition for this entry: `O=[N+]([O-])c1ccc(N2CCCC2)c(F)c1Br`
34
